These data points were gathered from PubChem BioAssay (NCI).

Assay: NCI Yeast Anticancer Drug Screen. Data for the cln2 rad14 strain (AID 165);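 also: 0% = growth equal to vehicle treated cultures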
Conditions: S. cerevisiae cln2 rad14 strain, at 50.0 µM (retest, dose inferred, filed as 5.0), active compounds read high
This is part of a sample that, as a whole, favours compounds with a hit. Of some 79,000 tested, about 15% had one in any assay.

{"COMPOUND": "O=[N+]([O-])CC(O)c1ccccc1 (configuration not stated)", "UNIT_INFO": "%", "growth inhibition": -1}
{"COMPOUND": "CCC[CH2][Sn]1([CH2]CCC)[O]C2C(CO)OC(n3ccc(N)nc3=O)C2[O]1 (configuration not stated)", "UNIT_INFO": "%", "growth inhibition": 99}
{"COMPOUND": "CN1CSC(=S)N(Cc2ccccc2)C1", "UNIT_INFO": "%", "growth inhibition": 41}
{"COMPOUND": "Cc1cc(C(=O)c2ccccc2Cl)ccc1O", "UNIT_INFO": "%", "growth inhibition": 98}
{"COMPOUND": "CCCCCCCCCCCCNCCCc1ccccc1", "UNIT_INFO": "%", "growth inhibition": 97}
{"COMPOUND": "C=C1C(=O)OC2CC3(C)CCCC(C)C3=CC12 (configuration not stated)", "UNIT_INFO": "%", "growth inhibition": 25}
{"COMPOUND": "c1ccc(-c2nc(N=C3N=c4ccccc4=N3)[nH]c2-c2ccccn2)nc1", "UNIT_INFO": "%", "growth inhibition": 93}
{"COMPOUND": "CCCCNC(=O)C(C)O (configuration not stated)", "UNIT_INFO": "%", "growth inhibition": 0}
{"COMPOUND": "COC(=O)c1ccc(=O)c2nc3/c(=C/O)c(O)cc(=O)c3[nH]c12", "UNIT_INFO": "%", "growth inhibition": 96}
{"COMPOUND": "OC(CSc1ccccc1)CN1CCN(c2ccc(Cl)cc2)CC1 (configuration not stated)", "UNIT_INFO": "%", "growth inhibition": 62}
{"COMPOUND": "COC(=O)Nc1nc2ccc(C3(c4ccc(F)cc4)OCCO3)cc2[nH]1", "UNIT_INFO": "%", "growth inhibition": 36}
{"COMPOUND": "c1csc(-c2[nH]nc3c2CCc2ccccc2-3)c1", "UNIT_INFO": "%", "growth inhibition": 96}
